B1: glmS ribozyme (parent)
chain: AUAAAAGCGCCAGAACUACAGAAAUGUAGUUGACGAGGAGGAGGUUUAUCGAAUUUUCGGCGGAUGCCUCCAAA

variants of: B1; assay: kcat; higher = faster cleavage; RNA array; details: with glucosamine-6-phosphate
Fewer inactive variants are shown than the library holds.
The entries below come with measured kcat values attached.
API: value field is a number in s⁻¹; no unit string.

[
  {
    "mutation-list": "A14U U47G",
    "unit-symbol": "s⁻¹",
    "kcat": 0.00156
  }
]

The recorded kcat for C50A A53G is 2.89e-05

// field: kcat; key: A39G G43U ; value = 0.000168
